Values compiled from paper PMC3472128.

- EXPERIMENTAL SYSTEM: Nedd4L WW2 domain Lys378Glu (Homo sapiens, UniProt Q96PU5, K398E)
- Sequence (Q96PU5 384-423 K398E): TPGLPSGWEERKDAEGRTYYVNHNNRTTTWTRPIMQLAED
- PROTOCOL DESCRIPTION: ITC, Smad7 peptide vs Nedd4L WW2 Lys378Glu
- Type: binding
QUANTITY NAME: Kd (µM)

{"SUBSTANCE": "Ac-ELESPPPPYSRYPMD-NH2 [Smad7 peptide]", "QUANTITY NAME": "Kd", "QUANTITATIVE RESULT": 23.5}

###

- EXPERIMENTAL SYSTEM: YAP WW1 domain (Homo sapiens, UniProt P46937)
- Sequence (P46937 163-206): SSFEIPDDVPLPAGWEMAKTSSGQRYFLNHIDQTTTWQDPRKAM
- PROTOCOL DESCRIPTION: ITC, Smad7 peptide vs YAP WW1
- Format: binding
QUANTITY NAME: Kd (µM)

{"SUBSTANCE": "Ac-ELESPPPPYSRYPMD-NH2 [Smad7 peptide]", "QUANTITATIVE RESULT": 6.9}

###

- EXPERIMENTAL SYSTEM: YAP WW1-WW2 pair (Homo sapiens)
- Sequence (P46937 163-266 limits assumed): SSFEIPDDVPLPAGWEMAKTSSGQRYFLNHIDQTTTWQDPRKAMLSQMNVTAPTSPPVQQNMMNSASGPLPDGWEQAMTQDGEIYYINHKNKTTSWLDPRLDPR
- PROTOCOL DESCRIPTION: ITC, YAP WW1-WW2 pair
- Type: binding

{"SUBSTANCE": "Ac-ELESPPPPYSRYPMD-NH2 [Smad7 peptide]", "UNIT TEXT": "µM", "Kd": 9.8}

###

- EXPERIMENTAL SYSTEM: Smurf1 WW1-WW2 (Homo sapiens)
- Sequence (Q9HCE7 233-314 isoform Q9HCE7-2): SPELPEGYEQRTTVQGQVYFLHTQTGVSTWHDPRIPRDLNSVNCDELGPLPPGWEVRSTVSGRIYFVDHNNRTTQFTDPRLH
- PROTOCOL DESCRIPTION: ITC, Smad7 peptide vs Smurf1 WW1-WW2 pair
- Assay type: binding
- PROTOCOL CONDITIONS: affinity (KD), ITC; 15 °C; Tris buffer (Figure 1C); at least three times, two protein expression batches
QUANTITY NAME: Kd (µM)

{"SUBSTANCE": "Ac-ELESPPPPYSRYPMD-NH2 [Smad7 peptide]", "UNIT TEXT": "µM", "QUANTITATIVE RESULT": 1.7}

###

- EXPERIMENTAL SYSTEM: Smurf2 WW3 domain R312E (Homo sapiens, UniProt Q9HAU4, R312E)
- Sequence (Q9HAU4 297-333 R312E limits assumed): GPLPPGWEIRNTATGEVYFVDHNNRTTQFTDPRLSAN
- PROTOCOL DESCRIPTION: ITC, Smad7 peptide vs Smurf2 WW3 R312E
- Type: binding
QUANTITY NAME: Kd (µM)

{"SUBSTANCE": "Ac-ELESPPPPYSRYPMD-NH2 [Smad7 peptide]", "EXPERIMENTAL SYSTEM": "Smurf2 WW3 domain R312E (Homo sapiens, UniProt Q9HAU4, R312E)", "QUANTITATIVE RESULT": 34.2}
